Tested on: OVCAR-3 ovarian
Protocol: NCI tumour cell line growth inhibition, 48 h; in the data active = GI50 below about 0.43 µM; inactive = the rest
Permitted responses: true for active, false for inactive

Q. Give the logged outcome of this assay for the following compound: N#CC1=C(N)Oc2c(sc3c(F)cccc23)C1c1ccc([N+](=O)[O-])cc1 (centres undefined)
A. true

Q. Give the logged outcome of this assay for the following compound: Cc1cc(NC(=O)CCc2ccc(N3C(N)=NC(N)=NC3(C)C)cc2)ccc1S(=O)(=O)F
A. false

Q. Give the logged outcome of this assay for the following compound: O=C(Oc1ccc([N+](=O)[O-])cc1)N1CCC(C(O)(c2ccc3c(c2)OCO3)c2ccc3c(c2)OCO3)CC1
A. false

Q. Give the logged outcome of this assay for the following compound: O=C(c1cccs1)c1c(C(F)(F)F)n([O-])c2cc(F)c(F)cc2[n+]1=O
A. false

Q. Give the logged outcome of this assay for the following compound: O=C1C(Nc2ccccn2)=C(I)C(=O)c2ncccc21
A. true

Q. Give the logged outcome of this assay for the following compound: CS(=O)(=O)c1ccc(C(F)(F)F)cc1NC(=O)Nc1cnc(Oc2ccc(-c3cc(Cl)cnc3N)cc2)nc1
A. false

Q. Give the logged outcome of this assay for the following compound: CCOC(=O)c1cc(C(=O)c2cc(OC)cc(OC)c2)n2ncccc12
A. true

Q. Give the logged outcome of this assay for the following compound: CCOC(=O)c1c(C)c2c(n1C)CSc1cc(S(=O)(=O)c3ccccc3)c(=O)[nH]c1-2
A. false

Q. Give the logged outcome of this assay for the following compound: C[C@]12CC[C@H]3[C@@H](C[C@@H]4SC(Nc5cccc(F)c5)=N[C@@]45CC(=O)CC[C@]35C)[C@@H]1CCC2=O
A. false

* * *

Test system: A498 renal
Protocol: NCI tumour cell line growth inhibition, 48 h
Tag: Satisfied if measured TGI is not below 20 µM, Not satisfied if it is.

Q. Check this compound for TGI at or above 20 µM: C#C[C@]1(O)CC[C@H]2[C@@H]3CC=C4c5nc(Nc6ccc(OC)cc6OC)sc5CC[C@]4(C)[C@H]3CC[C@@]21C
A. Not satisfied

Q. Check this compound for TGI at or above 20 µM: O=C(O)/C(O)=C1/C=C(c2ccccc2)c2ccccc21
A. Satisfied

Q. Check this compound for TGI at or above 20 µM: Nc1nc(Cl)c2ncn(Cc3ccccc3CCl)c2n1
A. Satisfied

Q. Check this compound for TGI at or above 20 µM: N#Cc1cccc(Nc2nccc(-c3cnn4ncccc34)n2)c1
A. Not satisfied

Q. Check this compound for TGI at or above 20 µM: CC1=NN(C(=O)c2ccc(Cl)cc2)C(=O)/C1=C/c1cccc(O)c1
A. Satisfied

Q. Check this compound for TGI at or above 20 µM: O=C(Nc1cc(C(F)(F)F)ccc1Cl)C(=O)C(C(=O)c1ccc2ccccc2c1)C1OC(=O)c2ccccc21 (stereo not drawn)
A. Satisfied

Q. Check this compound for TGI at or above 20 µM: COc1cc(OC)c(/C=N/N=C(\N)NO)c(OC)c1
A. Satisfied

Q. Check this compound for TGI at or above 20 µM: COC(=O)C(Cc1ccccc1)NS(=O)(=O)c1ccc(-c2c3nc(c(-c4ccc(S(=O)(=O)NC(Cc5ccccc5)C(=O)OC)cc4)c4ccc([nH]4)c(-c4ccc(S(=O)(=O)NC(Cc5ccccc5)C(=O)OC)cc4)c4nc(c(-c5ccc(S(=O)(=O)NC(Cc6ccccc6)C(=O)OC)cc5)c5ccc2[nH]5)C=C4)C=C3)cc1 (stereo not drawn)
A. Satisfied
